The reported measurements were obtained from patent US12534469B2.

Molecular target: FLT3 (Homo sapiens, UniProt P36888)
Construct: purchased Reaction Biology (RBC HotSpot Kinase Assay)
Sequence (P36888 564-958 limits assumed): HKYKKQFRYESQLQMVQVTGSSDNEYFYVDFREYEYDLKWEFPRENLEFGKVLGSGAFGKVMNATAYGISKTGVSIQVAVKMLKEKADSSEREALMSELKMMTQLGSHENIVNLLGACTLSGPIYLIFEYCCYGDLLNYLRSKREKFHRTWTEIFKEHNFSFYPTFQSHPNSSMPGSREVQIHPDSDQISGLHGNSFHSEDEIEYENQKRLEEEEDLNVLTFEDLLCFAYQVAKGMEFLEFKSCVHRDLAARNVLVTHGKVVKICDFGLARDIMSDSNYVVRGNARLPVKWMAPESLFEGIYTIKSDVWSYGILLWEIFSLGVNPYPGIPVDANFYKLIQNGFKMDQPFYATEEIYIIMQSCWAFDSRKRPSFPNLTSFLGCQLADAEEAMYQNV
Assay: RBC HotSpot Kinase Assay, FLT3
Format: biochemical
Assignment: determine reported pIC50 for the given compounds.
One number for each entry, as −log10 of the molar value.

>  <compound>
FC(F)c1ccc2ncc(-c3cccc(N[C@H]4CNC[C@@H]4F)n3)n2n1

>  <study_target>
FLT3 (Homo sapiens, UniProt P36888)

>  <endpoint_name>
pIC50

>  <reported_result>
8.22

$$$$

Answer for every listed entry: what is its pIC50? The entries follow.
1. c1cc(NC2CCNC2)nc(-c2cnc3ccc(-c4cn[nH]c4)nn23)c1 (stereo not shown)
2. FC(F)[C@H]1CNC[C@@H]1Nc1cccc(-c2cnc3ccc(C4CC4)nn23)n1

Response:
1: 9.05; 2: 9.00

Can you give me pIC50 for all of these, one by one?
1. CC(C)(C)c1ccc2ncc(-c3cccc(N[C@H]4CNC[C@@H]4F)n3)n2n1
2. FC(F)n1cc(-c2ccc3ncc(-c4cccc(N[C@H]5CCNC[C@@H]5F)n4)n3n2)cn1
3. COc1cc2ncc(-c3cccc(N[C@H]4CNC[C@@H]4F)n3)n2nc1-c1cnn(C)c1
4. CC(C)(O)Cn1cc(-c2ccc3ncc(-c4cccc(N[C@H]5CNC[C@@H]5C(F)(F)F)n4)n3n2)cn1
5. Cc1oncc1-c1ccc2ncc(-c3cccc(NC4CCC5(CNC5)C4)n3)n2n1 (stereo not shown)
6. FC(F)(F)[C@H]1CNC[C@@H]1Nc1cccc(-c2cnc3ccc(C4CC4)nn23)n1
7. COc1cc2ncc(-c3cccc(N[C@H]4CNC[C@@H](F)C4)n3)n2nc1C1(C(F)(F)F)CC1
8. Cn1cc(-c2ccc3ncc(-c4cccc(NC5CCC6(CNC6)C5)n4)n3n2)cn1 (stereo not shown)

Response:
7.96
8.40
9.00
8.52
8.10
9.10
8.70
8.70

Prompt: Entry "COc1cc2ncc(-c3cccc(N[C@H]4CNC[C@@H]4C(F)(F)F)n3)n2nc1C1CC1" has what pIC50?
Response: 9.22

----------
target: FLT3 (Homo sapiens, UniProt P36888); construct: purchased Reaction Biology (RBC HotSpot Kinase Assay); test: RBC HotSpot Kinase Assay, FLT3; assay type: biochemical
Assign IC50 to each entry below.
Answers are plain numbers, in nM.

>  <compound>
F[C@H]1CNC[C@@H]1Nc1cccc(-c2cnc3ccc(N4CCCCC4)nn23)n1

>  <output_unit>
nM

>  <reported_result>
6

$$$$
>  <compound>
FC1(F)CNCC1Nc1cccc(-c2cnc3ccc(-c4cnn(C5CC5)c4)nn23)n1 (stereo not shown)

>  <output_unit>
nM

>  <reported_result>
6

$$$$
>  <compound>
CC(C)(O)Cn1cc(-c2ccc3ncc(-c4cccc(N[C@@H]5CCCNC5)n4)n3n2)cn1

>  <output_unit>
nM

>  <reported_result>
4

$$$$
>  <compound>
F[C@H]1CNC[C@@H]1Nc1cccc(-c2cnc3ccc(NC4CCC4)nn23)n1

>  <output_unit>
nM

>  <reported_result>
6

$$$$
>  <compound>
O[C@H]1CNC[C@@H]1Nc1cccc(-c2cnc3ccc(C4CC4)nn23)n1

>  <output_unit>
nM

>  <reported_result>
18

$$$$
>  <compound>
FC(F)n1cc(-c2ccc3ncc(-c4cccc(N[C@H]5CNC[C@@H]5C(F)(F)F)n4)n3n2)cn1

>  <output_unit>
nM

>  <reported_result>
3

$$$$
>  <compound>
FC1(F)CNCC1Nc1cccc(-c2cnc3ccc(-c4cnn5c4CCCC5)nn23)n1 (stereo not shown)

>  <output_unit>
nM

>  <reported_result>
2

$$$$
>  <compound>
CNc1ccc2ncc(-c3cccc(N[C@H]4CNC[C@@H]4F)n3)n2n1

>  <output_unit>
nM

>  <reported_result>
5

$$$$

Quick request: IC50 for each listed item, please.
1. F[C@H]1CNC[C@@H]1Nc1cccc(-c2cnc3ccc(C(F)(F)F)nn23)n1
2. c1ccc(-n2cc(-c3ccc4ncc(-c5cccc(NC6CCNC6)n5)n4n3)cn2)cc1 (stereo not shown)
3. COc1cc2ncc(-c3cccc(N[C@H]4CNC[C@@H]4C)n3)n2nc1C1(C(F)(F)F)CC1

Response:
[3, 2, 0.8]

Prompt: IC50 for "CC(C)Oc1cnn2c(-c3cccc(N[C@H]4CNC[C@@H]4F)n3)cnc2c1" ?
Response: 9

----------
I'd be grateful if you could share measured pIC50 for these entries.
Target: IRAK4 (Homo sapiens)
Sequence (Q9NWZ3 1-460): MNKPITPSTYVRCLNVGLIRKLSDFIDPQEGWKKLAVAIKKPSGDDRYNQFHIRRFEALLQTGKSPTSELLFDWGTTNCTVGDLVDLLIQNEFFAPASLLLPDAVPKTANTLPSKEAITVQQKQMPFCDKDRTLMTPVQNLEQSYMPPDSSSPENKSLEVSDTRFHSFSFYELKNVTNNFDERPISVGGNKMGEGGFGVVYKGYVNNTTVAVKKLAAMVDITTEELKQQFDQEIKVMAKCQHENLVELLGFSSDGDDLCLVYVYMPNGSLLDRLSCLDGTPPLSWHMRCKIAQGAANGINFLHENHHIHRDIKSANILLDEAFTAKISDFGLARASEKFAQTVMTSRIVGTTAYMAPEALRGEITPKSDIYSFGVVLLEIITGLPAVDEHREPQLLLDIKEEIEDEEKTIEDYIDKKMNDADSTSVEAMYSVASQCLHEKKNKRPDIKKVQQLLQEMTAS
Test: RBC HotSpot Kinase Assay, IRAK4
Assay type: biochemical
Parameters: purchased Reaction Biology (RBC HotSpot Kinase Assay)
Text: This assay uses the isolated kinase enzyme. This assay is very useful for determining competition of the inhibitor for ATP and/or substrates and for measuring the kinetics of enzyme inhibition. […] Unlike kinase binding assays that measure competition for ATP, the HotSpot Kinase Assay is a functional assay that measures catalytic activity; as such it measures relative functional potency regardless of the mechanism of enzyme inhibition. […]
One number for each entry, as −log10 of the molar value.

>  <molecule>
CC(C)(C)c1ccc2ncc(-c3cccc(N[C@H]4CNC[C@@H]4F)n3)n2n1 [Compound 80]

>  <study_target>
IRAK4 (Homo sapiens)

>  <pIC50>
6.64

$$$$
>  <molecule>
FC1(F)CNCC1Nc1cccc(-c2cnc3ccc(-c4cnn5ccccc45)nn23)n1 (stereo not shown) [Compound 56]

>  <study_target>
IRAK4 (Homo sapiens)

>  <pIC50>
9.00

$$$$
>  <molecule>
c1ccc(-n2cc(-c3ccc4ncc(-c5cccc(NC6CC7(CCNC7)C6)n5)n4n3)cn2)cc1 (stereo not shown) [Compound 40]

>  <study_target>
IRAK4 (Homo sapiens)

>  <pIC50>
5.89

$$$$

Switching to the query record.
Prompt: # lookup: pIC50 of c1cc(NC2CCNC2)nc(-c2cnc3ccc(-c4cn[nH]c4)nn23)c1 (stereo not shown) [Compound 26]
Response: 7.70

----------
Molecular target: FLT3 (Homo sapiens, UniProt P36888)
Construct: using full-length kinases in the presence of cellular concentrations of ATP in live, uncompromised cells; assay by Reaction Biology; host or cells: HEK-293 (ATCC), transient transfection
Sequence (P36888 27-993): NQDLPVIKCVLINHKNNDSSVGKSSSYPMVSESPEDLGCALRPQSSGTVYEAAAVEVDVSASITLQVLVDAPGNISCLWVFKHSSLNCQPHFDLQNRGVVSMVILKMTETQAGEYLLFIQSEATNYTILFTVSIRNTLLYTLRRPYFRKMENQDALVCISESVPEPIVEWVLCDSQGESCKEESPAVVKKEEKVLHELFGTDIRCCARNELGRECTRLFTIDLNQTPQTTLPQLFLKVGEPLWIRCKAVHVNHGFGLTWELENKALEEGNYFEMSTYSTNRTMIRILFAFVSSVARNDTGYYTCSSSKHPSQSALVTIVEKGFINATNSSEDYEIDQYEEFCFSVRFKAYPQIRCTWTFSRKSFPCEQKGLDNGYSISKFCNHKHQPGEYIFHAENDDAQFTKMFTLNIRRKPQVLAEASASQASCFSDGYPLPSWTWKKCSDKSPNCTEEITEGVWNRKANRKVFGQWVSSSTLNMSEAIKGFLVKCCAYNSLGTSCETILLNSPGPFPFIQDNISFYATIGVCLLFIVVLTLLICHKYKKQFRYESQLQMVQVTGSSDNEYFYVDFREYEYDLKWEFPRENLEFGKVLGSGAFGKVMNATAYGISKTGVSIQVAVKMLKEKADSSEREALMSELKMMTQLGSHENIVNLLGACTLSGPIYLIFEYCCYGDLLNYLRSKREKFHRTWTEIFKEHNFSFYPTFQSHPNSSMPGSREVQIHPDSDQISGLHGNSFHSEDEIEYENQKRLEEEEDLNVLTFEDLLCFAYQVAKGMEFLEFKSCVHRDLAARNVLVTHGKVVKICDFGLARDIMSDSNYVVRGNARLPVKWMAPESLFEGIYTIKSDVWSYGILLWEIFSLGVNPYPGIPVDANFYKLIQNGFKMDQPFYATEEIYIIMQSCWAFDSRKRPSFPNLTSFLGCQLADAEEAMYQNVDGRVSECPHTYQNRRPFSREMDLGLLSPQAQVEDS
Assay: Reaction Biology NanoBRET target engagement assay, FLT3
Type: cell-based
Conditions: transfected HEK-293 cells
Would you mind telling me the reported IC50 of each entry?
Numbers only, in nM.

>  <molecule>
COc1cc2ncc(-c3cccc(N[C@H]4CNC[C@@H]4C(F)(F)F)n3)n2nc1C1CC1 [Compound 99]

>  <study_target>
FLT3 (Homo sapiens, UniProt P36888)

>  <output_unit>
nM

>  <IC50>
3

$$$$
>  <molecule>
c1cc(N[C@@H]2CCCNC2)nc(-c2cnc3ccc(-c4cnn5ccccc45)nn23)c1 [Compound 19]

>  <study_target>
FLT3 (Homo sapiens, UniProt P36888)

>  <output_unit>
nM

>  <IC50>
142

$$$$
>  <molecule>
COc1cc2ncc(-c3nc(N[C@H]4CNCC[C@@H]4F)c(F)cc3F)n2nc1C(C)(C)O [Compound 128]

>  <study_target>
FLT3 (Homo sapiens, UniProt P36888)

>  <output_unit>
nM

>  <IC50>
102

$$$$

Prompt: // lookup IC50 for COc1cc2ncc(-c3cccc(N[C@H]4CNCC[C@@H]4F)n3)n2nc1C1CC1 [Compound 102]
Response: 4
